tested on: MLO-Y4 osteocytes; experiment: High-throughput drug screening of primary cilia length and incidence; type: cell-based; settings: 10 μM, 16 hours, triplicate; normalized to vehicle control; standard deviation away from the population average
Where a name gives a salt, the structure may show the parent alone.
Entries and their Average Incidence SD Away
Only the number, expressed in SD, is required.

compound	value-units	quantitative-result
CCc1ccc(CCOc2ccc(CC3SC(=O)NC3=O)cc2)nc1 (stereo not shown) [Pioglitazone hydrochloride (Actos), Pioglitazone hydrochloride]	SD	2.52
Cc1cc2c(s1)Nc1ccccc1N=C2N1CCN(C)CC1 [Olanzapine (Zyprexa), Olanzapine]	SD	1.609
CNC(=O)c1cc(Oc2ccc(NC(=O)Nc3ccc(Cl)c(C(F)(F)F)c3)cc2)ccn1 [Sorafenib (Nexavar), Sorafenib]	SD	1.678
CCCc1cc(=O)[nH]c(=S)[nH]1 [Propylthiouracil]	SD	1.659
Cc1nccn1CC1CCc2c(c3ccccc3n2C)C1=O (stereo not shown) [Ondansetron (Zofran), Ondansetron]	SD	1.506
CN1[C@@H]2CC[C@H]1C[C@@H](OC(=O)c1c[nH]c3ccccc13)C2 [Tropisetron]	SD	1.694

Kindly consider the entry below.
Inquiry: Would you kindly share the measured Average Incidence SD Away for O=c1[nH]c(=O)n([C@H]2C[C@H](O)[C@@H](CO)O2)cc1C(F)(F)F [Trifluridine (Viroptic), Trifluridine] ?
Reply text: 2.117

----------
tested on: MLO-Y4 osteocytes; assay: High-throughput drug screening of primary cilia length and incidence; type: cell-based; conditions: 10 μM, 16 hours, triplicate; normalized to vehicle control; standard deviation away from the population average
Counter-ions that a name gives are not always drawn.
reported-endpoint: Average Length SD Away (SD)
Write it as a number; the unit SD goes unstated.

Below are worked cases with known answers.
compound	Average Length SD Away (SD)
CC(=O)O[C@@]12CO[C@@H]1C[C@H](O)[C@@]1(C)C(=O)[C@H](O)C3=C(C)[C@@H](OC(=O)[C@H](O)[C@@H](NC(=O)OC(C)(C)C)c4ccccc4)C[C@@](O)([C@@H](OC(=O)c4ccccc4)[C@H]21)C3(C)C [Docetaxel]	3.416
C=C[C@H]1C[N@@]2CC[C@H]1C[C@H]2[C@H](O)c1ccnc2ccc(OC)cc12 [QUININE SULFATE]	1.802
O.c1cnc2c(c1)ccc1cccnc12 [110-Phenanthroline monohydrate]	1.838
CC(=O)O[C@H]1CC[C@@]2(C)[C@@H](CC[C@@H]3[C@@H]2CC(=O)[C@]2(C)[C@@H]4[C@H](C[C@@H]32)O[C@]2(CC[C@@H](C)CO2)[C@H]4C)C1 [HECOGENIN ACETATE]	2.21
C[C@@H](NC(=O)/C(C#N)=C/c1ccc(O)c(O)c1)c1ccccc1 (single isomer, unassigned) [Tyrphostin B44 (−) enantiomer]	1.877

Inquiry: Bench note: what Average Length SD Away did CCc1c2c(nc3ccc(OC(=O)N4CCC(N5CCCCC5)CC4)cc13)-c1cc3c(c(=O)n1C2)COC(=O)[C@]3(O)CC [Irinotecan] show?
Reply text: 1.658

Inquiry: Tell me the measured Average Length SD Away of C=C(C)[C@H]1CC=C(C(=O)O)CC1 [PERILLIC ACID (−)] , please.
Reply text: 2.196

----------
test system: MLO-Y4 osteocytes; assay: High-throughput drug screening of primary cilia length and incidence; format: cell-based; details: 10 μM, 16 hours, triplicate; normalized to vehicle control; standard deviation away from the population average
Counter-ions that a name gives are not always drawn.
Reported Average Length SD Away values follow for various compounds
Lab book: enter the figure in SD, no units written.

Check out these entries, answers already filled in.
compound	target-desc	reported-endpoint	quantitative-result
Cc1cc(/C=C/c2ccc3cc(N(C)C)ccc3[n+]2C)c(C)n1-c1ccccc1 [PYRVINIUM PAMOATE]	MLO-Y4 osteocytes	Average Length SD Away	2.834
COC(=O)Nc1nc2ccc([S+]([O-])c3ccccc3)cc2[nH]1 (centres unmarked) [Oxfendazole]	MLO-Y4 osteocytes	Average Length SD Away	1.574
Nc1nc2[nH]cc(CCc3ccc(C(=O)N[C@@H](CCC(=O)O)C(=O)O)cc3)c2c(=O)[nH]1 [Pemetrexed]	MLO-Y4 osteocytes	Average Length SD Away	2.765
COc1nccc(-c2c(-c3ccc(F)cc3)ncn2C2CCC(O)CC2)n1 (centres unmarked) [SB 239063]	MLO-Y4 osteocytes	Average Length SD Away	4

Inquiry: Which Average Length SD Away value is on record for Nc1nccc(-c2ccc3noc(-c4ccc(Cl)cc4)c3c2)n1 [PIM 1 Inhibitor 2] ?
Reply text: 3.223

Inquiry: Any idea what Average Length SD Away was measured for CC(C)(C)NCC(O)c1ccccc1Cl (centres unmarked) [TULOBUTEROL] ?
Reply text: 2.06

Inquiry: I am curious: what Average Length SD Away value has been reported for CN1Cc2ccccc2[C@@H]2c3cccc4[nH]cc(c34)C[C@H]21 [CY 208-243] ?
Reply text: 2.567

Inquiry: If you can, please state the reported Average Length SD Away value of CCC(C)n1ncn(-c2ccc(N3CCN(c4ccc(OCC5COC(Cn6cncn6)(c6ccc(Cl)cc6Cl)O5)cc4)CC3)cc2)c1=O (centres unmarked) [ITRACONAZOLE] .
Reply text: 2.154

Inquiry: May I ask what Average Length SD Away has been recorded for CN(Cc1cc(Br)cc(Br)c1N)C1CCCCC1 [Bromhexine HCl] ?
Reply text: 1.547

Inquiry: Find the recorded Average Length SD Away belonging to Nc1nc2nc[nH]c2c(=S)[nH]1 [THIOGUANINE] and report it.
Reply text: 1.675

Inquiry: Consider the compound shown here: COc1cc2c(cc1C(F)(F)F)N(C(=O)Nc1cc(F)cc(-c3cccnc3)c1)CC2 [SB 228357] What is its recorded Average Length SD Away?
Reply text: 2.332

Inquiry: Given the compound Cn1ccc2cc3c(cc21)CCN3C(=O)Nc1cccnc1 [SB 206553 hydrochloride] , what is its reported Average Length SD Away?
Reply text: 1.704

Inquiry: Form field: reported Average Length SD Away of CCOc1ccc2nc3cc(N)ccc3c(N)c2c1 [Ethacridine lactate monohydrate]
Reply text: 2.114

Inquiry: Requested field: Average Length SD Away. Item: CC1(C)C(=O)C=C[C@]2(C)[C@H]3CC[C@@]4(C)[C@H](c5ccoc5)OC(=O)[C@H]5O[C@]54[C@]3(C)C(=O)C[C@@H]12 [DEACETOXY-7-OXOGEDUNIN]
Reply text: 1.843

Inquiry: May I ask what Average Length SD Away has been recorded for Fc1ccc(-c2nc3n(c2-c2ccncc2)CCS3)cc1 [SKF 86002 dihydrochloride] ?
Reply text: 1.549

Inquiry: Item under review: COc1ccc2c(c1OC)OC[C@@H](c1ccc(OC)c(OC)c1OC)C2 [DUARTIN DIMETHYL ETHER] . Reported Average Length SD Away?
Reply text: 2.07

Inquiry: For the compound Cc1nn(-c2ccccc2)c(C)c1/C=N/N1CCN(Cc2ccccc2)CC1 [SANT-1] , what Average Length SD Away is on record?
Reply text: 1.811
